test system: HCV genotype 1b replicon; assay: Transient replicon assay with engineered substitutions; type: cell-based, Hepatitis C virus; details: 1b wild type, transient transfection; read-out: Mean EC50 ± SD
Measure: pEC50
Schema: pEC50 number; meaning minus log10 of the concentration expressed in molar units.

Consider the compound "C=C[C@@H]1C[C@]1(NC(=O)[C@@H]1C[C@@H]2CN1C(=O)[C@H](C(C)(C)C)NC(=O)O[C@@H]1C[C@H]1CCCCCc1nc3ccc(OC)cc3nc1O2)C(=O)NS(=O)(=O)C1CC1" and give its measured pEC50. 9.72

----------
system: HCV genotype 2b replicon; assay: Transient replicon assay with engineered substitutions; assay type: cell-based, Hepatitis C virus; conditions: 2b wild type, transient transfection; read-out: Mean EC50 ± SD
Measure: EC50 (nM)
Dear colleague, please return just the value in nM, with no unit written.

Consider the compound C=C[C@@H]1C[C@]1(NC(=O)[C@@H]1C[C@@H]2CN1C(=O)[C@H](C(C)(C)C)NC(=O)O[C@@H]1C[C@H]1CCCCCc1nc3ccc(OC)cc3nc1O2)C(=O)NS(=O)(=O)C1CC1 [Grazoprevir] and give its measured EC50. 6.1
